Attribution: the RNAGym collection of RNA variant scans (doi:10.1126/science.aae0568)

B1: tRNA (parent)
chain: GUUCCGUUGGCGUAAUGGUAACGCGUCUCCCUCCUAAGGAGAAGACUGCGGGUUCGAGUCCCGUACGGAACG

# Variants of: B1
# RUN_DESCRIPTION: yeast fitness relative to wild type (ratio to wild type); higher = fitter; tRNA-Arg(CCU), competitive growth, 37 C, YPD
Fewer inactive variants are shown than the library holds.
Form field: yeast fitness (one value per entry).
Write the number on its own, no unit after it.

Some variants with known yeast fitness results, for comparison:
# SEQUENCE_CHANGE, ASSAY_VALUE
measured = [
    ("C4U C5A A36C A42G G52A", 0.578),
    ("C11A C27U C33U U35C", 0.634),
    ("G39A U54C", 0.945),
    ("A21C C34U A65G", 0.532),
    ("C31U G68A A69G", 0.702),
    ("C5U C27A A42U C49G", 0.763),
    ("A57U", 0.731),
    ("C49U C62G C66U", 0.608),
    ("U32C G38C G68C A69C", 0.589),
    ("C11U G39A", 0.947),
]

In the following, a different variant is considered.
In plain terms, G25A U32C has a documented yeast fitness of 0.832
